IC50 values for the compounds below.
# Test system: RAW264.7
# Experimental Details: Evaluated for inhibition of COX-2 catalyzed PGE-2 production from LPS induced RAW 264.7 cells
# Type: functional, cell-based
# Test Conditions: Mus musculus
Quick reminder: number only, in nM, skip the unit.

For orientation, consider the following solved cases.
>  <Structure Notation>
CS(=O)(=O)Nc1ccc([N+](=O)[O-])cc1OC1CCCCC1

>  <Reading>
500

$$$$
>  <Structure Notation>
COc1ccc2c(=O)cc(-c3ccc(Cl)cc3)oc2c1

>  <Reading>
500

$$$$
>  <Structure Notation>
O=c1cc(-c2ccccc2)oc2ccccc12

>  <Reading>
500

$$$$

--- query ---
Dear colleague, please send me the reported IC50 for "COc1c(O)cc(O)c2c(=O)cc(-c3ccccc3)oc12" when you can.
1080
